# TESTED_SYSTEM: Myotonin-protein kinase (Homo sapiens, UniProt Q09013)
# Sequence (Q09013 whole entry): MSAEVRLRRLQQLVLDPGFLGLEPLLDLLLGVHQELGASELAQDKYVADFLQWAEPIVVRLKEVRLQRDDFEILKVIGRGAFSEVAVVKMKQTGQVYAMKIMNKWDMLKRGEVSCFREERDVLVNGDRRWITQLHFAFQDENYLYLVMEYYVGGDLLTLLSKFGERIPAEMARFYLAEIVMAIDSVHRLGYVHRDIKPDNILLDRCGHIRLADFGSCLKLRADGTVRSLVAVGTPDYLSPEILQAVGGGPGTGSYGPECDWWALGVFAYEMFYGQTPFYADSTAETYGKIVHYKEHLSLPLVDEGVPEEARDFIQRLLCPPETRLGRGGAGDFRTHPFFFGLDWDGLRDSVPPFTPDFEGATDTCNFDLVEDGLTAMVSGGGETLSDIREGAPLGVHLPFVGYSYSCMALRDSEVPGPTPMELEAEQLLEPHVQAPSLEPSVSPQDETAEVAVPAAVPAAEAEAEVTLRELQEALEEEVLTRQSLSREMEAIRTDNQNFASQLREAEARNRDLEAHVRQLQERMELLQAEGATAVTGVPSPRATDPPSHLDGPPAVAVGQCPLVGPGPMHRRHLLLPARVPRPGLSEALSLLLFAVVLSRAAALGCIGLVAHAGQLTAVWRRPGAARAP
# METHOD_DESCRIPTION: Inhibition of recombinant human DMPK (1 to 549 residues) using KKSRGDYMTMQIG as substrate after 40 mins in presence of [gamma-33ATP] by radiometric scintillation counting analysis
pIC50: −log10 of the molar value.

{"SMILES_CODE": "CN(C)c1ccc(C(=O)Nc2cccc(NC(=O)COc3ccc4c(=O)ccoc4c3)c2)cc1", "pIC50": "< 5.00"}
